Data credit: ChEMBL document CHEMBL1156267

- Tested on: EMT6
- Test Description: Inhibition of proteasome in mouse EMT6 cell lysate assessed as cleavage of Suc-leu-leu-val-Tyr-AMC at 1000 nM after 30 mins
- Design: scale not given: the % may be the effect or the level left
Endpoint Name: Activity (%)

Sample records with Activity:
[[record]]
compound = "CC(C)C[C@H](C=O)NC(=O)[C@@H](CC(C)C)NC(=O)[C@@H](CC(C)C)NC(=O)OCc1ccccc1"
tested_system = "EMT6"
endpoint_name = "Activity"
value = 70

[[record]]
compound = "CC(C)CC(NC(=O)[C@@H](CC(C)C)NC(=O)OCc1ccccc1)C(=O)N[C@H](C=O)CC(C)C (stereo in doubt)"
tested_system = "EMT6"
endpoint_name = "Activity"
value = 61

[[record]]
compound = "CC(C)CC(NC(=O)[C@@H](CC(C)C)NC(=O)OCc1ccccc1)C(=O)N[C@H](C=O)CC(C)C (single isomer, unassigned; (+))"
tested_system = "EMT6"
endpoint_name = "Activity"
value = 100

[[record]]
compound = "CC(C)CC(NC(=O)[C@H](CC(C)C)NC(=O)OCc1ccccc1)C(=O)N[C@@H](C=O)CC(C)C (stereo in doubt; (-))"
tested_system = "EMT6"
endpoint_name = "Activity"
value = 46

[[record]]
compound = "CC(C)CC(NC(=O)[C@H](CC(C)C)NC(=O)OCc1ccccc1)C(=O)N[C@@H](C=O)CC(C)C (stereo in doubt; (+))"
tested_system = "EMT6"
endpoint_name = "Activity"
value = 111


(a) CC(C)C[C@@H](C=O)NC(=O)[C@@H](CC(C)C)NC(=O)[C@H](CC(C)C)NC(=O)OCc1ccccc1
(b) CC(C)C[C@@H](C=O)NC(=O)[C@H](CC(C)C)NC(=O)[C@H](CC(C)C)NC(=O)OCc1ccccc1 (stereo in doubt; 2)
From the recorded data, which exceeds the other in Activity: a or b ? In your reply, give the label of the chosen option. b
